target: Cloned human M1 receptor (CHRM1) (Homo sapiens); assay: CHRM1 Ca++ Flux Assay (HEK293 M1 cells, agonist mode); conditions: geometric mean if tested more than once, read-out: M1 FDSS EC50
MEASURED PROPERTY: EC50

Value sought: EC50, system Cloned human M1 receptor (CHRM1) (Homo sapiens), item `Cc1cc(COc2ccc(F)cc2C2CCN([C@@H]3COC4(C3)CN(c3nnco3)C4)CC2)on1` . Result: 289 nM

Assay Cloned human M1 receptor (CHRM1) (Homo sapiens), sample `c1ccc(C2CCN([C@@H]3COC4(C3)CN(c3nnco3)C4)CC2)c(-c2ncco2)c1` , EC50 read: 1230 nM

Bench note, Cloned human M1 receptor (CHRM1) (Homo sapiens): `Fc1ccc(OC2CC3(COC3)C2)c(C2CCN([C@@H]3COC4(C3)CN(c3nnco3)C4)CC2)c1` , EC50 reads 2220 nM

Considering `Fc1cc(OC2COC2)c(C2CCN([C@@H]3COC4(C3)CN(c3ncco3)C4)CC2)cc1F` , its EC50 with Cloned human M1 receptor (CHRM1) (Homo sapiens) was recorded as 294 nM

The recorded EC50 with Cloned human M1 receptor (CHRM1) (Homo sapiens) for `Fc1cc(F)c(OCC2COC2)c(C2CCN([C@@H]3COC4(C3)CN(c3nnco3)C4)CC2)c1` was 1120 nM

Short answer on Cloned human M1 receptor (CHRM1) (Homo sapiens) for `COc1cc(F)ccc1C1CCN([C@@H]2COC3(C2)CN(c2nnco2)C3)CC1` , EC50: 634 nM

---

Target: human cloned CHRM2 receptor (Homo sapiens, UniProt P08172)
Construct: expressed in transfected cells; host or cells: CHO-K1 (M2_CHO)
Sequence (P08172 whole entry): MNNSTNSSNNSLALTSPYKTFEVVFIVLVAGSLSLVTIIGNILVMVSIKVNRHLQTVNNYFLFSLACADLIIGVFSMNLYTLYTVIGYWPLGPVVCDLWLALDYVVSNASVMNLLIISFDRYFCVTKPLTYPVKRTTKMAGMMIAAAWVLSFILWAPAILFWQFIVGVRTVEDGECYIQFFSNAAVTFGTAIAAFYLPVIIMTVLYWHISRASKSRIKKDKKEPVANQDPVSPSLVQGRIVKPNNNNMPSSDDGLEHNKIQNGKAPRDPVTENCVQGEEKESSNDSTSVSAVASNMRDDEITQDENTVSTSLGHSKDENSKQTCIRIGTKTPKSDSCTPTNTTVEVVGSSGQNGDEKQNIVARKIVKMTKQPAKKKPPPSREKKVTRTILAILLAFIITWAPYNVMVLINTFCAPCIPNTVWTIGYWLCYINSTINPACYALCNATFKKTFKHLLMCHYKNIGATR
Test: CHRM2 Ca++ Flux Assay (M2_CHO cells, agonist mode)
Format: cell-based
Conditions: Percent Activity (PA) measured to EC100 of Carbachol; M2 CHO cells; read-out: M2 FDSS PA %
Description: The above examples were characterized by measuring the intracellular mobilization of Ca^++ ions caused by signaling events mediated by the receptor. […] Prior to the day of the assay, stable M2 CHO cells were thawed and plated on Greiner 384 well TC treated plate at a density of 12K cells/well and kept overnight in a humidified atmosphere (5% CO2) at 37° C. […] The Percent Activity (PA) was measured to EC100 of Carbachol. […]
MEASURED PROPERTY: Emax (%)
# value in %; strip the unit string

Below are worked cases with known answers.
Field Emax (human cloned CHRM2 receptor (Homo sapiens, UniProt P08172)), entry `c1ccc(C2CCN([C@@H]3COC4(C3)CN(c3ncco3)C4)CC2)c(O[C@H]2CCOC2)c1` : 20

Short answer on human cloned CHRM2 receptor (Homo sapiens, UniProt P08172) for `Fc1cc(F)c(OCC2COC2)c(C2CCN([C@@H]3COC4(C3)CN(c3nnco3)C4)CC2)c1` , Emax: 23

Would you kindly look at the next entry?
Simply: `Fc1ccc(OC2COC2)c(C2CCN([C@@H]3COC4(C3)CN(c3ncco3)C4)CC2)c1` , human cloned CHRM2 receptor (Homo sapiens, UniProt P08172), Emax = 21

---

Molecular target: human cloned CHRM4 receptor (Homo sapiens)
Construct: expressed in transfected cells; host or cells: CHO-K1 (M4_CHO)
Sequence (P08173 1-479): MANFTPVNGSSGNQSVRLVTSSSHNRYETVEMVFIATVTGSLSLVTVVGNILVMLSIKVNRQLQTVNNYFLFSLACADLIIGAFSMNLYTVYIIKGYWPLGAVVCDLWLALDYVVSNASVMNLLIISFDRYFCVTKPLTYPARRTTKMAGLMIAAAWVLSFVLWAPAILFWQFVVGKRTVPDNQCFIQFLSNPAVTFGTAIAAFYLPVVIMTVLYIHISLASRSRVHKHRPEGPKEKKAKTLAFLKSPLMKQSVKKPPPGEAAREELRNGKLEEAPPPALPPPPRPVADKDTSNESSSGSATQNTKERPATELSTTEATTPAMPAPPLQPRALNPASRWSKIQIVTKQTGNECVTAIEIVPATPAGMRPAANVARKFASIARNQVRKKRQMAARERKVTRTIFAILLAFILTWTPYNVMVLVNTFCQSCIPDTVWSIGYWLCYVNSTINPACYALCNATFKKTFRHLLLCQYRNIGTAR
Experiment: CHRM4 Ca++ Flux Assay (M4_CHO cells, agonist mode)
Type: cell-based
Settings: Percent Activity (PA), read-out: M4 FDSS PA %
MEASURED PROPERTY: Emax

Recorded results for 3 molecules are shown here.
Tested on human cloned CHRM4 receptor (Homo sapiens), the item `Fc1ccc(OC2COCOC2)c(C2CCN([C@@H]3COC4(C3)CN(c3nnco3)C4)CC2)c1` showed Emax equal to 79%

The observed Emax for `Fc1ccc(OCC2COC2)c(C2CCN([C@@H]3COC4(C3)CN(c3nncs3)C4)CC2)c1` when tested with human cloned CHRM4 receptor (Homo sapiens) stands at 79%

Summary: `c1ccc(C2CCN([C@@H]3COC4(C3)CN(c3ncco3)C4)CC2)c(O[C@@H]2CCOC2)c1` , human cloned CHRM4 receptor (Homo sapiens), Emax = 80%

---
# Emax measured on human cloned CHRM4 receptor (Homo sapiens) for item `Fc1ccc(OC[C@H]2COCCO2)c(C2CCN([C@@H]3COC4(C3)CN(c3nnco3)C4)CC2)c1` = 78%

Observed Emax on human cloned CHRM4 receptor (Homo sapiens), entry `Fc1ccc(OC2CC3(COC3)C2)c(C2CCN([C@@H]3COC4(C3)CN(c3ncco3)C4)CC2)c1` , equals 68%

Fill in: human cloned CHRM4 receptor (Homo sapiens) Emax for `COc1ccccc1C1CCN([C@@H]2COC3(C2)CN(c2nnco2)C3)CC1` = 79%

---

Biological target: Cloned human M1 receptor (CHRM1) (Homo sapiens)
Construct: expressed in transfected cells; host or cells: HEK293
Sequence (P11229 1-460): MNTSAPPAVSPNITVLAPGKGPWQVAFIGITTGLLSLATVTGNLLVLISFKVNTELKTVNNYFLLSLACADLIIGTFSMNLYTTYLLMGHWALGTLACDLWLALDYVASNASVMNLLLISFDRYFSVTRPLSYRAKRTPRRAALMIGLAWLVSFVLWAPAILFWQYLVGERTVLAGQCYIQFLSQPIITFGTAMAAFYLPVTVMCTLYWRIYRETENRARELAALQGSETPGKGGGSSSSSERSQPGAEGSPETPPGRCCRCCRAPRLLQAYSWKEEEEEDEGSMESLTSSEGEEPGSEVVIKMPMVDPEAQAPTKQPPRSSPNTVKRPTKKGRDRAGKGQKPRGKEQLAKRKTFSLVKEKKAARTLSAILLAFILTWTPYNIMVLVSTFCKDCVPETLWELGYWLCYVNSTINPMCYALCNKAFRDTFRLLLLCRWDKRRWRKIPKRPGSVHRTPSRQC
Assay: CHRM1 Ca++ Flux Assay (HEK293 M1 cells, agonist mode)
Assay type: cell-based
Conditions: Percent Activity (PA), read-out: M1 FDSS PA %
Listed compounds paired with reported Emax

Some solved entries appear below for comparison.
Record summary for `COCCOc1ccc(F)cc1C1CCN([C@@H]2COC3(C2)CN(c2ncns2)C3)CC1` : reported Emax = 60%

The compound listed as `CC(C)(O)CCOc1cc(F)ccc1C1CCN([C@@H]2COC3(C2)CN(c2nncs2)C3)CC1` shows Emax equal to 79%

Sure, the documented Emax for `CC(C)(O)COc1ccc(F)cc1C1CCN([C@@H]2COC3(C2)CN(c2ncns2)C3)CC1` is 60%

// recorded Emax for `COc1ccccc1C1CCN([C@@H]2COC3(C2)CN(c2ncco2)C3)CC1` : 64%

---
Briefly, Emax measured for `Fc1ccc(OC2COC2)c(C2CCN([C@@H]3COC4(C3)CN(c3nnco3)C4)CC2)c1` : 92%

Reported Emax ( `Fc1cc(F)c(OC2CC3(COC3)C2)c(C2CCN([C@@H]3COC4(C3)CN(c3nnco3)C4)CC2)c1` ) = 30%

Memo: `Fc1ccc(OC2CC3(COC3)C2)c(C2CCN([C@@H]3COC4(C3)CN(c3nnco3)C4)CC2)c1` , reported Emax: 47%

Lab note: measured Emax of `COc1ccc(F)cc1C1CCN([C@@H]2COC3(C2)CN(c2ncco2)C3)CC1` was 82%

Data point: `Fc1ccc(O[C@@H]2CCOC2)c(C2CCN([C@@H]3COC4(C3)CN(c3nnco3)C4)CC2)c1` ; Emax = 69%

---

Reported EC50 values for the following molecules.
molecular target: Cloned human M1 receptor (CHRM1) (Homo sapiens); assay: CHRM1 Ca++ Flux Assay (HEK293 M1 cells, agonist mode); conditions: geometric mean if tested more than once, read-out: M1 FDSS EC50
Numbers only here, please. The scale is nM.

Summary line: `CC(C)(O)CCOc1ccc(F)cc1C1CCN([C@@H]2COC3(C2)CN(c2nncs2)C3)CC1` , Cloned human M1 receptor (CHRM1) (Homo sapiens), reported EC50 = 413

# `COc1ccc(Cl)cc1C1CCN([C@@H]2COC3(C2)CN(c2ncns2)C3)CC1` with Cloned human M1 receptor (CHRM1) (Homo sapiens): EC50 is 630

Query `Fc1cc(OC2CCOCC2)c(C2CCN([C@@H]3COC4(C3)CN(c3nnco3)C4)CC2)cc1F` on Cloned human M1 receptor (CHRM1) (Homo sapiens); EC50 returned: 2900

Next:
EC50 of Fc1ccc([C@H]2CCOC2)c(C2CCN([C@@H]3COC4(C3)CN(c3nnco3)C4)CC2)c1 (single isomer, unassigned) [Example 3E] , assay on Cloned human M1 receptor (CHRM1) (Homo sapiens), is 695

These entries and their values trace back to patent US11485742B2.
